system: HeLa; assay: Antitumor activity against human HeLa cells assessed as inhibition of cell growth by MTT assay; assay type: functional, cell-based
pIC50: −log10 of the molar value.
observable: pIC50

query: Need pIC50, item CC1(C)C2CCC1(C)C(OC(=O)/C=C/c1cc(O)c(O)c(Cl)c1)C2 (configuration not stated)
result: 4.41

P. O=C(/C=C/c1cc(O)c(O)c(Br)c1)OCCc1ccccc1
Q. C=CCOC(=O)/C=C/c1ccc(O)c(O)c1
R. O=C(/C=C/c1ccc(O)c(O)c1)OCCCCc1ccccc1
query: // sort entries: pIC50, high to low Provide the labels, sequenced as the question asks.
result: P, R, Q

----------
tested on: SiHa; assay: Antitumor activity against human SiHa cells assessed as inhibition of cell growth by MTT assay; type: functional, cell-based
observable: IC50 (µM)
Answer in µM, number only, no unit symbol.

query: Need IC50, item CC1(C)C2CCC1(C)C(OC(=O)/C=C/c1cc(O)c(O)c(Cl)c1)C2 (configuration not stated)
result: 33.8

query: Next: CC1(C)C2CCC1(C)C(OC(=O)/C=C/c1ccc(O)c(O)c1)C2 (configuration not stated)
result: 73.7

query: Next: O=C(/C=C/c1ccc(O)c(O)c1)NC12CC3CC(CC(C3)C1)C2
result: 41.3

***
query: Need IC50, item CC(C)OC(=O)/C=C/c1ccc(O)c(O)c1
result: 48.2

query: Next: COc1cc(/C=C/C(=O)NC23CC4CC(CC(C4)C2)C3)ccc1O
result: 67.6

query: Next: C#CCOC(=O)/C=C/c1ccc(O)c(O)c1
result: 39.1

query: Next: CC1(C)C2CCC1(C)C(OC(=O)/C=C/c1cc(O)c(O)c(Br)c1)C2 (configuration not stated)
result: 29

query: Next: CCCCCCCOC(=O)/C=C/c1ccc(O)c(O)c1
result: 35.8

----------
tested on: HeLa; test: Antitumor activity against human HeLa cells assessed as inhibition of cell growth by MTT assay; type: functional, cell-based
observable: IC50 (µM)

// solved cases for IC50 follow
query: Need IC50, item O=C(/C=C/c1cc(O)c(O)c([N+](=O)[O-])c1)OC12CC3CC(CC(C3)C1)C2
result: 1.28

query: Next: O=C(/C=C/c1ccc(O)c(O)c1[N+](=O)[O-])OCCc1ccccc1
result: 10.9

query: Next: CC1(C)C2CCC1(C)C(OC(=O)/C=C/c1ccc(O)c(O)c1)C2 (stereo unspecified)
result: 20.6

query: Next: CCOC(=O)/C=C/c1ccc(O)c(O)c1 [ETHYL CAFFEATE]
result: 23.3

query: Next: CC1(C)C2CCC1(C)C(OC(=O)/C=C/c1cc(O)c(O)c(Br)c1)C2 (stereo unspecified)
result: 22.7

P. O=C(/C=C/c1ccc(O)c(O)c1)OC1CCCCC1
Q. CCCCOC(=O)/C=C/c1ccc(O)c(O)c1 [BUTYL CAFFEATE]
query: Please indicate which entry, P or Q , has the lower recorded IC50 value. Refer to your chosen entry by its label in the reply.
result: P

----------
The following compounds are listed with their measured IC50 values.
system: SiHa; test: Antitumor activity against human SiHa cells assessed as inhibition of cell growth by MTT assay; format: functional, cell-based
Answer in µM, number only, no unit symbol.

// solved cases for IC50 follow
query: Need IC50, item CC(C)(C)OC(=O)/C=C/c1ccc(O)c(O)c1
result: 42

query: Next: CCOC(=O)/C=C/c1ccc(O)c(O)c1 [ETHYL CAFFEATE]
result: 34.1

query: Next: O=C(/C=C/c1ccc(O)c(O)c1[N+](=O)[O-])OCCc1ccccc1
result: 17.2

query: Next: COc1cc(/C=C/C(=O)NC23CC4CC(CC(C4)C2)C3)cc([N+](=O)[O-])c1O
result: 59.5

query: Next: O=C(/C=C/c1cc(O)c(O)c([N+](=O)[O-])c1)OC12CC3CC(CC(C3)C1)C2
result: 6.74

***
query: Need IC50, item CCCCCCC(C)OC(=O)/C=C/c1ccc(O)c(O)c1 (stereo unspecified)
result: 49.9

query: Next: COC(=O)/C=C/c1ccc(O)c(O)c1 [METHYLCAFFEATE]
result: 60.3

query: Next: C=CCOC(=O)/C=C/c1ccc(O)c(O)c1
result: 30.7

query: Next: O=C(/C=C/c1ccc(O)c(O)c1)Oc1ccccc1
result: 52.3
